B1: Arginine-glutamic acid dipeptide repeats protein, residues 502 to 543; numbered along this chain, Q9P2R6 (parent)
chain: LKGYACRHCFTTTSKDWHHGGRENILLCTDCRIHFKKYGELP

- Variants of: B1
- assay.notes: abundance fitness (aPCA) (normalised: wild type 0, dead -1); higher = more abundant; growth selection in yeast, the domain comes from the species named
- experimental.parameters: Homo sapiens
Everything with abundance fitness lower than -0.2 is -1; everything else, including exactly -0.2, is 1.

Is the recorded value of abundance fitness equal to or greater than -0.2 for this variant? LKGYACRNCFTTTSKDWHHGGRENILLCTDCRIHFKKYGELP
1

Is it the case that LKGYACRHCFTTTSKAWHHGGRENILLCTDCRIHFKKYGELP has abundance fitness reaching or exceeding -0.2?
-1

Hi team, for LKGYACRHCFTTTSKDWHHGGRENILLCTDCRIHFKKYLELP , is the recorded abundance fitness at or above -0.2?
-1

Decide: abundance fitness of LKGYACRHCFTTTSKDWHHGGREIILLCTDCRIHFKKYGELP >= -0.2?
-1

Evaluate LKGYACIHCFTTTSKDWHHGGRENILLCTDCRIHFKKYGELP : abundance fitness at minimum -0.2?
1

Does the variant LKGYACRHCFTTNSKDWHHGGRENILLCTDCRIHFKKYGELP have recorded abundance fitness that is -0.2 or more?
1

Hi, just wondering whether LHGYACRHCFTTTSKDWHHGGRENILLCTDCRIHFKKYGELP shows abundance fitness of -0.2 or higher.
-1

Exam item: decide whether the reported abundance fitness for LKGYACRHDFTTTSKDWHHGGRENILLCTDCRIHFKKYGELP is at least -0.2.
-1

Decide: abundance fitness of LKGYACRHCFSTTSKDWHHGGRENILLCTDCRIHFKKYGELP >= -0.2?
1

Identify whether the reported abundance fitness of the following variant is -0.2 or greater: LKGYACRHCFTTTSKDWHHGGKENILLCTDCRIHFKKYGELP
1

Has LKGYACRHCFTTTSKDWHHGGRENILLCTDWRIHFKKYGELP a recorded abundance fitness greater than or equal to -0.2?
-1

# bool: abundance fitness of LKGYACRHVFTTTSKDWHHGGRENILLCTDCRIHFKKYGELP >= -0.2
-1

API: above_or_equal(metric=abundance fitness, cutoff=-0.2) for item LKGYACRHCFTTTSKDWHHGGRENIYLCTDCRIHFKKYGELP
-1

Does the variant LKGYACRHCFTTTSKDWHHGGRENILLCTDRRIHFKKYGELP have recorded abundance fitness that is -0.2 or more?
-1

API: above_or_equal(metric=abundance fitness, cutoff=-0.2) for item LKGYACRHCFTTTSKDWTHGGRENILLCTDCRIHFKKYGELP
1

Quick check: does LKGYACRHCFTTTSKDWHHGGRENILDCTDCRIHFKKYGELP have abundance fitness greater than or equal to -0.2?
-1

Answer whether abundance fitness of LKGYACRHCFTYTSKDWHHGGRENILLCTDCRIHFKKYGELP is greater than or equal to -0.2.
-1

Quick check, abundance fitness >= -0.2? LKGYACRHCFTTTSKDWHHGGRENILLCTDCRIIFKKYGELP
-1

Identify whether the reported abundance fitness of the following variant is -0.2 or greater: LKGYACRHCFTTTSKDWHHGGREAILLCTDCRIHFKKYGELP
1

Form field: abundance fitness at least -0.2? Entry: VKGYACRHCFTTTSKDWHHGGRENILLCTDCRIHFKKYGELP
1

I'd appreciate it if you could say whether LKGYACRHCFTTTSKDWHHGGRENIDLCTDCRIHFKKYGELP has abundance fitness at least equal to -0.2.
-1

Sourced from the Human Domainome abundance scans (Beltran et al. 2025)
